test: ATG_TCF_b_cat_CIS: Attagene CIS-FACTORIAL HepG2 Assay for human T-Cell-Factor with beta-catenin (TCF/b-cat) (AID 2282965); settings: HepG2 TCF/beta-catenin cis-reporter transcription, actives raise or lower the signal
Calls of active or inactive are those of the source. Rule for the calls: active = hit-call score of the fitted dose curve at least 0.9, where 1 is the maximum; inactive = score below 0.9.
readout_type: AC50

The cases that follow already have their AC50 on record.
{"compound": "CC(C)[C@H](C(=O)OC(C#N)c1cccc(Oc2ccccc2)c1)c1ccc(OC(F)F)cc1 (stereo partly drawn)", "result": "inactive"}
{"compound": "Cc1ccc(OP(=O)(Oc2ccc(C)cc2C)Oc2ccc(C)cc2C)c(C)c1", "result": "inactive"}
{"compound": "OC(Cc1ccccc1Cl)(Cn1cncn1)C1(Cl)CC1 (stereo not drawn)", "result": "inactive"}
{"compound": "O=S(=O)(c1ccc(Cl)cc1)c1cc(Cl)c(Cl)cc1Cl", "result": "inactive"}
{"compound": "Clc1ccc(C(Cl)(Cl)Cl)cn1", "result": "inactive"}

Enquiry: GET /values?readout=AC50&item= CC(C)CP(=S)(S)CC(C)C
Return: inactive

Enquiry: Need AC50 of CCCCCCCCCCCCCl , thanks.
Return: inactive

Enquiry: Which AC50 is listed for CC(C)N(C(=O)CCl)c1ccccc1 ?
Return: inactive

Enquiry: Query: AC50; subject: O=C(O)c1cc(I)cc(I)c1I
Return: inactive

Enquiry: What value of AC50 has been recorded for this entry: N#Cc1ccncc1
Return: inactive

Enquiry: What measured AC50 goes with O=c1nc(O)n(Cl)c(=O)n1Cl ?
Return: inactive

Enquiry: Dear colleague, I am looking for the recorded AC50 of the following compound: CC(C)(c1ccccc1)c1cc(-n2nc3ccccc3n2)c(O)c(C(C)(C)c2ccccc2)c1
Return: inactive

Enquiry: Item under review: C=CCN=C=S . Reported AC50?
Return: inactive

Enquiry: Please give the measured AC50 for this compound: O=S1OC[C@@H]2[C@H](CO1)[C@]1(Cl)C(Cl)=C(Cl)[C@@]2(Cl)C1(Cl)Cl (stereo partly drawn)
Return: inactive

Enquiry: Endpoint output: AC50 of [Cl][Sn]([c]1ccccc1)([c]1ccccc1)[c]1ccccc1 . Value?
Return: inactive

Enquiry: // lookup AC50 for O=S(=O)(Oc1ccc(Cl)cc1)c1ccc(Cl)cc1
Return: inactive

Enquiry: Record request: AC50 value, item O=C=Nc1ccc(Cl)cc1
Return: inactive

Enquiry: # query: AC50 of entry NC(=O)CCl
Return: inactive

* * *

assay: ATG_PXRE_CIS: Attagene CIS-FACTORIAL HepG2 Assay for human Pregnane X Receptor Element (PXRE) (AID 2282957); details: HepG2 Attagene CIS-FACTORIAL PXRE reporter, mRNA; actives raise or lower the signal
Active and inactive are the calls of the source. Rule for the calls: active = hit-call score of the fitted dose curve at least 0.9, where 1 is the maximum; inactive = score below 0.9.
Respond using exactly one of the listed classes: 1 (yes) for active, 0 (no) for inactive

{"molecule": "C[As+](C)(C)CC(=O)[O-]", "answer_label": "0 (no)"}

Enquiry: Outcome? Nc1nc(N)nc(Cl)n1
Return: 0 (no)

Enquiry: Recorded call for CCC[CH2][Sn]([CH2]CCC)([CH2]CCC)[CH2]CCC ?
Return: 1 (yes)

Enquiry: Give the logged outcome of this assay for the following molecule: O=CCCl
Return: 1 (yes)

Enquiry: Called result for OC[P+](CO)(CO)CO
Return: 0 (no)

Enquiry: # lookup: test call for Nc1ccc(-c2ccccc2)cc1
Return: 1 (yes)

Enquiry: What classification did CNC(=O)O/N=C/C(C)(C)S(C)(=O)=O end up with in this test?
Return: 0 (no)

* * *

biological target: Ratio of Nucleoli Translocation and Cytoplasm, AR (gene 367) (UniProt P10275); test: UPITT_HCI_U2OS_AR_TIF2_Nucleoli_Cytoplasm_Ratio_Antagonist: University of Pittsburgh U2OS Androgen Receptor-Transcriptional Intermediary Factor 2 (AR-TIF2) Antagonism High Content Imaging Assay for Ratio of Nucleoli Translocation and Cytoplasm (AID 2283999);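 note: antagonists lower the DHT-driven ratio of nucleolar to cytoplasmic red signal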
Sequence (P10275 whole entry, looked up): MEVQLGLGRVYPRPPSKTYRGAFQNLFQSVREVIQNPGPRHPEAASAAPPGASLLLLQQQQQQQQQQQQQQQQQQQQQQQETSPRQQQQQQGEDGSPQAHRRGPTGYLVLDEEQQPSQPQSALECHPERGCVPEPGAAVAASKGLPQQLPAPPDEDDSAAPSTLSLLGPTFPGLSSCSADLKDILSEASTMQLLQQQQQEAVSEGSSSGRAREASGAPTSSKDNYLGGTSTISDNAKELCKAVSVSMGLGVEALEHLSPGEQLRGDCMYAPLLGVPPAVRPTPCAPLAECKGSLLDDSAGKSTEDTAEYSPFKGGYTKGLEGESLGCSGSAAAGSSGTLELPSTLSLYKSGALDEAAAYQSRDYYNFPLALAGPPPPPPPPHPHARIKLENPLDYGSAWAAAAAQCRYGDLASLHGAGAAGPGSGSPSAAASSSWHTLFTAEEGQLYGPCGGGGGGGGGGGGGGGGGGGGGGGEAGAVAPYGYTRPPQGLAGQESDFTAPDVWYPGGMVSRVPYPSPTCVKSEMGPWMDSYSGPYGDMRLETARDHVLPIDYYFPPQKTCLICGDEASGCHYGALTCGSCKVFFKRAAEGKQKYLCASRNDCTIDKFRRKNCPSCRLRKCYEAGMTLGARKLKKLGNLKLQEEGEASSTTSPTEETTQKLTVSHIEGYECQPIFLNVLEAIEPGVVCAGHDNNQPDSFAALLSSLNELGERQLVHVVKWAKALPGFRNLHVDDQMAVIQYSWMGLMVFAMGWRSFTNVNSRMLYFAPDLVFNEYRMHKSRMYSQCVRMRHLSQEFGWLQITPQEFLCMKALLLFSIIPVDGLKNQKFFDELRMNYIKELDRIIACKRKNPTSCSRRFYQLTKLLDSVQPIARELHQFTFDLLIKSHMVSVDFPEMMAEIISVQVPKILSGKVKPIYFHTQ
Records with an inconclusive call do not appear. Active and inactive are the calls of the source. How the source made its calls: active means hit-call score of the fitted dose curve at least 0.9, where 1 is the maximum; inconclusive means response in the unintended direction; inactive means score below 0.9.
// one of active, inactive, no free text

Enquiry: # lookup: test call for O=S1OC[C@@H]2[C@H](CO1)[C@]1(Cl)C(Cl)=C(Cl)[C@@]2(Cl)C1(Cl)Cl (stereo not given in full)
Return: inactive

Enquiry: Entry CNC(=O)O/N=C/C(C)(C)S(C)(=O)=O : call = ?
Return: inactive

Enquiry: // param item: CCOP(=S)(OCC)OP(=S)(OCC)OCC ; yields the recorded call
Return: inactive

Enquiry: // outcome(item) with item = O=C1c2ccccc2C(=O)C1C(=O)C(c1ccccc1)c1ccc(Cl)cc1 (stereo not given)
Return: inactive

Enquiry: Which outcome did this test record for the molecule O=C(CCl)Nc1ccccc1 ?
Return: active

* * *

Assay: CCTE_Mundy_HCI_Cortical_NOG_NeuriteLength: CCTE's Neurite Outgrowth Assay in rat cortical cells for Neurite Length, Mundy Lab (AID 2284213)
Description: CCTE_Mundy_HCI_Cortical_NOG is a multiplexed, cell-based-readout assay that uses rat primary cortical cells with measurements taken at 50.33 hours after chemical dosing in a microplate: 96-well plate.CCTE_Mundy_HCI_Cortical_NOG_NeuriteLength is one of four components of the CCTE_Mundy_HCI_Cortical_NOG assay. It measures neurite outgrowth related to the neurite length using High Content Imaging of fluorescently labelled markers.[…] […]
Calls of active or inactive are those of the source. Rule for the calls: active = hit-call score of the fitted dose curve at least 0.9, where 1 is the maximum; inactive = score below 0.9.
Please state which outcome applies, choosing from active, inactive

{"compound": "CC(C)[C@@H](Nc1ccc(C(F)(F)F)cc1Cl)C(=O)OC(C#N)c1cccc(Oc2ccccc2)c1 (some centres undefined)", "answer_label": "inactive"}

Enquiry: State the result this test recorded for NC(=O)c1ccc(N)nc1 .
Return: active

Enquiry: Record request — test call for CNC(=O)CSP(=O)(OC)OC
Return: inactive

Enquiry: Dear colleague, could you share the recorded outcome for CC1(C)[C@H](C(=O)O[C@H](C#N)c2cccc(Oc3ccccc3)c2)[C@@H]1/C=C(\Cl)C(F)(F)F when you have a moment?
Return: active

* * *

experiment: CCTE_Shafer_MEA_acute_burst_number: CCTE's Neural Acute Assay for Single-Electrode Bursts, Shafer Lab (AID 2284013)
The source made the active and inactive calls. How the source made its calls: active means hit-call score of the fitted dose curve at least 0.9, where 1 is the maximum; inactive means score below 0.9.

{"compound_structure": "OCCCCO", "outcome": "inactive"}
{"compound_structure": "CN(C)C(=S)S", "outcome": "inactive"}
{"compound_structure": "CCCCCCCCCCCCc1cccc(S(=O)(=O)O)c1", "outcome": "inactive"}

* * *

experiment: ATG_E_Box_CIS: Attagene CIS-FACTORIAL HepG2 Assay for human Enhancer Box (E-box) (AID 2282936); details: HepG2 E-box cis-reporter transcription, actives raise or lower the signal
Activity calls are given as the source filed them. How the source made its calls: active means hit-call score of the fitted dose curve at least 0.9, where 1 is the maximum; inactive means score below 0.9.
Mark one answer only. Choices: 1.0 (active), 0.0 (inactive)

These recorded examples may help you get a feel for the data.
{"compound": "OC(Cc1ccccc1Cl)(Cn1[nH]cnc1=S)C1(Cl)CC1 (configuration not stated)", "answer_label": 0.0}
{"compound": "c1ccc(-c2cccc(-c3ccccc3)c2)cc1", "answer_label": 0.0}
{"compound": "N#Cc1ccccc1N", "answer_label": 0.0}
{"compound": "O=C(O)COc1cc(Cl)c(Cl)cc1Cl", "answer_label": 0.0}

Enquiry: Answer briefly: the call reported for Cc1cc(SCc2sc(-c3ccc(C(F)(F)F)c(F)c3)nc2C)ccc1OCC(=O)O in this assay.
Return: 0.0

Enquiry: Assay result, entry ClCc1ccccc1Cl — outcome?
Return: 0.0

Enquiry: How was OC[P+](CO)(CO)CO classified in this test?
Return: 0.0

Enquiry: Please share the test call associated with CC(C)O.CC(C)O.OCCN(CCO)CCO.OCCN(CCO)CCO.[Ti] .
Return: 0.0

Enquiry: Test call for this compound, please: CC(C)(C)c1cc([N+](=O)[O-])cc(C(C)(C)C)c1O
Return: 0.0

Enquiry: Just curious, what result did C#CCOC(=O)/C=C(C)/C=C/CC(C)CCCC(C)C (configuration not stated) get here?
Return: 0.0

Enquiry: Could you kindly confirm the outcome this assay logged for CCOC(=O)c1ccccc1S(=O)(=O)NC(=O)Nc1nc(Cl)cc(OC)n1 ?
Return: 0.0

* * *

Assay: CEETOX_H295R_OHPREG: CeeTox H295R High-throughput Steroidogenesis Assay for OH-Pregnenolone (OHPREG) (AID 2283434)
Details: actives raise or lower the signal
Description: CEETOX_H295R is a cell-based, multiplexed-readout assay that uses H295R, a human adrenal gland cell line, with measurements taken at 48 hours after chemical dosing in a 96-well plate.CEETOX_H295R_OHPREG is one of 23 assay component(s) measured or calculated from the CEETOX_H295R assay. […] This assay endpoint, CEETOX_H295R_OHPREG, was analyzed with bidirectional fitting relative to DMSO as the negative control and baseline of activity. […]
The source made the active and inactive calls. Rule for the calls: active = hit-call score of the fitted dose curve at least 0.9, where 1 is the maximum; inactive = score below 0.9.
Bench note: report the call from active, inactive

Observe how each entry below is paired with its result.
{"compound": "C[C@]12CC[C@@H](O)C[C@@H]1CC[C@@H]1[C@@H]2CC[C@]2(C)C(=O)CC[C@@H]12", "answer_label": "inactive"}
{"compound": "CCOCn1c(-c2ccc(Cl)cc2)c(C#N)c(Br)c1C(F)(F)F", "answer_label": "active"}
{"compound": "O=S1OC[C@@H]2[C@H](CO1)[C@]1(Cl)C(Cl)=C(Cl)[C@@]2(Cl)C1(Cl)Cl (some centres not stated)", "answer_label": "active"}

Enquiry: Assay result, entry CCCCCCCCCCCCN(C)C — outcome?
Return: inactive

Enquiry: Hi team, can someone confirm the assay call for Nc1ccc(N)cc1 ?
Return: inactive

Enquiry: Check the results log: what was the call for Cc1cc(Cl)ccc1O ?
Return: inactive

Enquiry: Which outcome was entered for the compound CCOP(=O)(OCC)OC(=CCl)c1ccc(Cl)cc1Cl in this test?
Return: inactive

Enquiry: // outcome(item) with item = CC(C)=CC1C(C(=O)OCc2cccc(Oc3ccccc3)c2)C1(C)C (configuration not stated)
Return: active

Enquiry: Could you please tell me the result logged for CCCSP(=S)(OCC)Oc1ccc(SC)cc1 (configuration not stated) in this assay?
Return: active

Enquiry: Tell me the recorded outcome of this test for O=[N+]([O-])c1ccc(Nc2ccccc2)cc1 .
Return: inactive

Enquiry: Given CCOP(=S)(OCC)O/N=C(\C#N)c1ccccc1 , state the outcome it received in this test.
Return: inactive
